pIC50: −log10 of the molar value.
Observed pIC50 values for Tyrosine-protein kinase JAK1 (Homo sapiens) are listed in what follows.
outcome.measure: pIC50

(a) Cc1ccc(NC(=O)N2C[C@H](N(C)c3ncnc4[nH]ccc34)C3(CC3)C2)cc1Cl
(b) CN(c1ncnc2[nH]ccc12)[C@H]1CN(C(=O)Nc2ccccc2-c2ccccc2)CC12CC2
Query: Hi, I'm comparing two records. Which one has the lower pIC50, a or b ? Lab note: record the label of whichever item you select.
Reply: b

(1) CCCCNC(=O)N1C[C@H](N(C)c2ncnc3[nH]ccc23)C2(CC2)C1
(2) Cc1cccc(S(=O)(=O)N2C[C@H](N(C)c3ncnc4[nH]ccc34)C3(CC3)C2)c1
Query: Endpoint returns whichever of 1 and 2 has the numerically higher pIC50. Give the label under which the chosen entry appears.
Reply: 2
(2: 7.92, 1: 7.12)

###

- Species: Homo sapiens
- experimental.protocol: Selectivity index, ratio of IC50 for human JAK2 to IC50 for human JAK1
outcome.measure: Ratio IC50

See these solved cases before continuing.
- mol: "CN(c1ncnc2[nH]ccc12)[C@H]1CN(C(=O)C2CC2)CC12CC2"
  outcome.measure: "Ratio IC50"
  observed.result: 7.1
- mol: "CCS(=O)(=O)N1C[C@H](N(C)c2ncnc3[nH]ccc23)C2(CC2)C1"
  outcome.measure: "Ratio IC50"
  observed.result: 25
- mol: "CN(c1ncnc2[nH]ccc12)[C@H]1CN(S(=O)(=O)N2CCOCC2)CC12CC2"
  outcome.measure: "Ratio IC50"
  observed.result: 8.4
- mol: "CN(c1ncnc2[nH]ccc12)[C@H]1CN(S(=O)(=O)c2ccccc2[N+](=O)[O-])CC12CC2"
  outcome.measure: "Ratio IC50"
  observed.result: 18

(a) CN(c1ncnc2[nH]ccc12)[C@H]1CN(Cc2ccccc2)CC12CC2
(b) Cc1cccc(S(=O)(=O)N2C[C@H](N(C)c3ncnc4[nH]ccc34)C3(CC3)C2)c1
Query: Please indicate which item has the smaller measured Ratio IC50: a versus b Which one? Tell me its label.
Reply: b
(b: 5.5, a: 820)

###

- experimental.protocol: Oral bioavailability in Sprague-Dawley rat at 10 mg/kg after 0.25 to 24 hrs by LC-MS/MS method
- Assay type: ADME, organism-based
- settings: in vivo
outcome.measure: bioavailability (%)

- mol: "CN(c1ncnc2[nH]ccc12)[C@H]1CN(C(=O)CC#N)CC12CC2.O=C(O)CC(O)(CC(=O)O)C(=O)O"
  endpoint.unit: "%"
  bioavailability: 58

(P) CN(c1ncnc2[nH]ccc12)[C@H]1CN(C(=O)CC#N)CC12CC2.O=C(O)C(O)C(O)C(=O)O
(Q) CN(c1ncnc2[nH]ccc12)[C@H]1CN(C(=O)CC#N)CC12CC2
Query: When P and Q are compared, which has the higher number for bioavailability? Response format: the label of the selected entry.
Reply: Q

###

- experimental.protocol: Cmax in Sprague-Dawley rat at 10 mg/kg, po after 0.25 to 24 hrs by LC-MS/MS method
- Assay type: ADME, organism-based
- Design: dose 10 mg/kg, route oral
- settings: in vivo
outcome.measure: Cmax (µg/mL)

- mol: "CN(c1ncnc2[nH]ccc12)[C@H]1CN(C(=O)CC#N)CC12CC2.O=C(O)CC(O)(CC(=O)O)C(=O)O"
  Cmax, µg/mL: 1.2
- mol: "CN(c1ncnc2[nH]ccc12)[C@H]1CN(C(=O)CC#N)CC12CC2"
  Cmax, µg/mL: 1
- mol: "CN(c1ncnc2[nH]ccc12)[C@H]1CN(C(=O)CC#N)CC12CC2.O=C(O)C(O)C(O)C(=O)O"
  Cmax, µg/mL: 1
- mol: "CN(c1ncnc2[nH]ccc12)[C@H]1CN(C(=O)CC#N)CC12CC2.Cl"
  Cmax, µg/mL: 1.3

###

- experimental.protocol: Apparent permeability across apical to basolateral side in human Caco2 cells at 25 uM measured every 15 mins for 60 mins by LC-MS/MS method
- Assay type: ADME, cell-based
- settings: Caco-2
outcome.measure: Papp A→B at 1 h, 25 µM (×10⁻⁶ cm/s)

- mol: "CN(c1ncnc2[nH]ccc12)[C@H]1CN(S(=O)(=O)c2cccc(C#N)c2)CC12CC2"
  endpoint.unit: "×10⁻⁶ cm/s"
  Papp A→B at 1 h, 25 µM: 13.4

(P) CN(c1ncnc2[nH]ccc12)[C@H]1CN(C(=O)CC#N)CC12CC2
(Q) CCS(=O)(=O)N1C[C@H](N(C)c2ncnc3[nH]ccc23)C2(CC2)C1
Query: Could you point out whether the larger Papp A→B at 1 h, 25 µM belongs to P or to Q ? Mark your answer with the label of the selected entry.
Reply: Q

###

- tested.system: Tyrosine-protein kinase JAK1 (Homo sapiens, UniProt P23458)
- Sequence (P23458 whole entry): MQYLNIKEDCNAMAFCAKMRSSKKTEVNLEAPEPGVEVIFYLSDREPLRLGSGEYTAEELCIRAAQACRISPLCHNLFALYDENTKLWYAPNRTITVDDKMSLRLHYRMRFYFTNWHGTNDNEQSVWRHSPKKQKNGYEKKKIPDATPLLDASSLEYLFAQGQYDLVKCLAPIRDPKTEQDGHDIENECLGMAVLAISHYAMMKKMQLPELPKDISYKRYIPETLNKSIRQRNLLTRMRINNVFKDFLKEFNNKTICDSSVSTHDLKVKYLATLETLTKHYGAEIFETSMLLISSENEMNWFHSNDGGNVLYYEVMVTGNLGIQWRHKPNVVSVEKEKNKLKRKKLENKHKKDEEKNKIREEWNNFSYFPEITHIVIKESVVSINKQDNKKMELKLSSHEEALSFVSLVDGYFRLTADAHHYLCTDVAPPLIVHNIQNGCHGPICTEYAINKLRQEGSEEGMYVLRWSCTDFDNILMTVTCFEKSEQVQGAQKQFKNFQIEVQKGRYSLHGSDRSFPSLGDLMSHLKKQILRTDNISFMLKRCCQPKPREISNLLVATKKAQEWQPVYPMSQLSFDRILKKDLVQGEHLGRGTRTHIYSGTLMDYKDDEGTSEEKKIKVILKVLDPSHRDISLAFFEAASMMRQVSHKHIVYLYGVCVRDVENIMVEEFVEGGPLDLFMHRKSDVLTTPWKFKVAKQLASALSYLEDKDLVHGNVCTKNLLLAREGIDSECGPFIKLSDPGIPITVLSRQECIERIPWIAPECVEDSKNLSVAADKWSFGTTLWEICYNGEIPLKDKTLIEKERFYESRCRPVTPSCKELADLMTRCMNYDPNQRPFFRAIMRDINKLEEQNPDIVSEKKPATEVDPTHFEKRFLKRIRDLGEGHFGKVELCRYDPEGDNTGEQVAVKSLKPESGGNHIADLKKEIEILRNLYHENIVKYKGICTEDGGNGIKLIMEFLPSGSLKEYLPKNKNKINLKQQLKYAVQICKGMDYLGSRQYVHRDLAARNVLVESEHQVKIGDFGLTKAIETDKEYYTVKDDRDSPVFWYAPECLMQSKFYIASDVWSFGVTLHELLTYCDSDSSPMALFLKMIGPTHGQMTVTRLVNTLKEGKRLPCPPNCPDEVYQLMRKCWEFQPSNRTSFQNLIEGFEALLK
pIC50: −log10 of the molar value.
outcome.measure: pIC50

- mol: "CCN1C[C@H](N(C)c2ncnc3[nH]ccc23)C2(CC2)C1"
  tested.system: "Tyrosine-protein kinase JAK1 (Homo sapiens, UniProt P23458)"
  pIC50: 5.85
- mol: "CN(c1ncnc2[nH]ccc12)[C@H]1CN(S(=O)(=O)c2ccc([N+](=O)[O-])cc2)CC12CC2"
  tested.system: "Tyrosine-protein kinase JAK1 (Homo sapiens, UniProt P23458)"
  pIC50: 8.20
- mol: "CN(c1ncnc2[nH]ccc12)[C@H]1CN(C(=O)c2ccccc2C(F)(F)F)CC12CC2"
  tested.system: "Tyrosine-protein kinase JAK1 (Homo sapiens, UniProt P23458)"
  pIC50: 6.30

(a) CN(c1ncnc2[nH]ccc12)[C@H]1CN(C(=O)c2ccncc2)CC12CC2
(b) CN(c1ncnc2[nH]ccc12)[C@H]1CN(C(=O)c2ccco2)CC12CC2
(c) CN(c1ncnc2[nH]ccc12)[C@H]1CN(S(=O)(=O)c2ccccc2)CC12CC2
(d) CN(c1ncnc2[nH]ccc12)[C@H]1CN(S(=O)(=O)c2ccc(C(F)(F)F)cc2)CC12CC2
Query: I would appreciate it if you could sort these 4 compounds by pIC50, starting from the smallest number. Respond with an ordered listing of the labels, as requested.
Reply: a, b, d, c
(a: 6.85, b: 7.28, d: 7.80, c: 8.05)

(P) CN(c1ncnc2[nH]ccc12)[C@H]1CN(C(=O)c2ccccc2)CC12CC2
(Q) CN(c1ncnc2[nH]ccc12)[C@H]1CN(S(=O)(=O)N2CCOCC2)CC12CC2
Query: Pick one, P or Q : lowest reported pIC50. Write down the label attached to your selection.
Reply: P
(P: 6.82, Q: 7.51)

###

- Species: Homo sapiens
- experimental.protocol: Selectivity index, ratio of IC50 for human JAK2 to IC50 for human JAK1
outcome.measure: Ratio IC50

- mol: "CN(c1ncnc2[nH]ccc12)[C@H]1CN(C(=S)CC#N)CC12CC2"
  Ratio IC50: 8

(P) CC(=O)N1CCC(C(=O)N2C[C@H](N(C)c3ncnc4[nH]ccc34)C3(CC3)C2)CC1
(Q) CN(c1ncnc2[nH]ccc12)[C@H]1CN(C(=O)Nc2ccccc2)CC12CC2
(R) CN(c1ncnc2[nH]ccc12)[C@H]1CN(S(=O)(=O)c2ccccc2C#N)CC12CC2
Query: // smallest Ratio IC50 at index 0, largest at the end Use the labels to give the requested order.
Reply: R, P, Q

(1) CN(c1ncnc2[nH]ccc12)[C@H]1CN(C(=O)Nc2cccc(Cl)c2Cl)CC12CC2
(2) CN(c1ncnc2[nH]ccc12)[C@H]1CN(S(=O)(=O)c2cccc(C#N)c2)CC12CC2
(3) CN(c1ncnc2[nH]ccc12)[C@H]1CN(S(=O)(=O)c2ccc(F)cc2)CC12CC2
Query: Order by Ratio IC50, ascending. Labels, requested order.
Reply: 3, 2, 1
(3: 5.3, 2: 10, 1: 18)

###

- Species on record: Homo sapiens
- experimental.protocol: Selectivity index, ratio of IC50 for human JAK2 to IC50 for human JAK1
outcome.measure: Ratio IC50

Before answering, review these 4 worked examples.
- mol: "CN(c1ncnc2[nH]ccc12)[C@H]1CN(C(=O)c2ccccc2)CC12CC2"
  observed.result: 42
- mol: "Cc1ccc(NC(=O)N2C[C@H](N(C)c3ncnc4[nH]ccc34)C3(CC3)C2)cc1Cl"
  observed.result: 15
- mol: "CN(c1ncnc2[nH]ccc12)[C@H]1CN(S(=O)(=O)c2ccccc2F)CC12CC2"
  observed.result: 7.5
- mol: "CN(c1ncnc2[nH]ccc12)[C@H]1CN(S(=O)(=O)c2ccc([N+](=O)[O-])cc2)CC12CC2"
  observed.result: 4.8

(a) CC(C)CC(=O)N1C[C@H](N(C)c2ncnc3[nH]ccc23)C2(CC2)C1
(b) CN(c1ncnc2[nH]ccc12)[C@H]1CN(C(=O)c2cccnc2)CC12CC2
Query: Higher Ratio IC50: a or b ? Kindly give the label for the entry you pick.
Reply: b

(I) CN(c1ncnc2[nH]ccc12)[C@H]1CN(C(=O)c2ccccc2C(F)(F)F)CC12CC2
(II) CN(c1ncnc2[nH]ccc12)[C@H]1CN(S(=O)(=O)c2cccc(F)c2)CC12CC2
(III) CN(c1ncnc2[nH]ccc12)[C@H]1CN(C(=O)CN=[N+]=[N-])CC12CC2
(IV) CN(c1ncnc2[nH]ccc12)[C@H]1CN(C(=O)Nc2cc(Cl)ccc2Cl)CC12CC2
(V) CN(c1ncnc2[nH]ccc12)[C@H]1CN(C(=O)Nc2ccc(Cl)c(Cl)c2)CC12CC2
Query: Please produce an ascending ranking of these compounds based on Ratio IC50. A ranking is expressed here by listing the labels in the requested order.
Reply: II, III, I, V, IV
(II: 3, III: 12, I: 18, V: 33, IV: 52)

(1) CNC(=O)CC(=O)N1C[C@H](N(C)c2ncnc3[nH]ccc23)C2(CC2)C1
(2) CCCCNC(=O)N1C[C@H](N(C)c2ncnc3[nH]ccc23)C2(CC2)C1
(3) CN(c1ncnc2[nH]ccc12)[C@H]1CN(S(=O)(=O)c2ccccc2)CC12CC2
(4) CN(c1ncnc2[nH]ccc12)[C@H]1CN(C(=O)c2cccc(C#N)c2)CC12CC2
Query: // ascending sort on recorded Ratio IC50 Returns: the labels arranged in the requested order.
Reply: 3, 1, 2, 4
